biological target: recombinant human α1D receptor (Homo sapiens, UniProt P25100); construct: expressed in transfected cells; host or cells: HEK293; experiment: Adrenergic α1D selectivity binding assay ([3H]-prazosin); conditions: inhibition of [3H]-prazosin (0.3 nM) binding, HEK293 membranes; read-out: α1 bind pIC50 (converted)
Sequence (P25100 whole entry): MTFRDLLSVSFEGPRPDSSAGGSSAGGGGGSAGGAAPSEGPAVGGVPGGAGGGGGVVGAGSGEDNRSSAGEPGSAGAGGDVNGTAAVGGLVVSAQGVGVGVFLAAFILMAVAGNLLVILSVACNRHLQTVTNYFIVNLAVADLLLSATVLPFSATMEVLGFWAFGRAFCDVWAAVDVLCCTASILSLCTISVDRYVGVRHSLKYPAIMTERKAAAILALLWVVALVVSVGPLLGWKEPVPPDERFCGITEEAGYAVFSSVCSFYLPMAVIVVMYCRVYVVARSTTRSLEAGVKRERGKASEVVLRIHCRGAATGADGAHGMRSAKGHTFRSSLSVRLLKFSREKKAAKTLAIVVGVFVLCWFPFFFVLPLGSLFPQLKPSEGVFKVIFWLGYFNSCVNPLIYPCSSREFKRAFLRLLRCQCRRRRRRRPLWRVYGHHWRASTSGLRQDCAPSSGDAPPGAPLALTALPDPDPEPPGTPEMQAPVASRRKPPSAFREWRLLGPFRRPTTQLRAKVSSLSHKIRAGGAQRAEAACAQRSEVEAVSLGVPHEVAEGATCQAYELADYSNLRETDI
Counter-ions that a name gives are not always drawn.
Parameter class (string): assigned from measured IC50. Ranges: low value = under 200 nM, medium value = from 200 nM up to 300 nM, high value = 300 nM and over

>  <molecule>
O=C(CCNCCc1ccc(Cl)c(Cl)c1)N(CCNCCc1ccc(O)c2[nH]c(=O)sc12)C1CCC(F)(F)CC1 [Example 49, bis-trifluoroacetic acid salt]

>  <qualitativeLabel>
high value

$$$$
>  <molecule>
O=C(CCNCCc1cccc(OC(F)F)c1)N(CCNCCc1ccc(O)c2[nH]c(=O)sc12)C1CCCCCC1 [Example 54, bis-trifluoroacetic acid salt]

>  <qualitativeLabel>
high value

$$$$
>  <molecule>
CC(C)N(CCNCCc1ccc(O)c2[nH]c(=O)sc12)C(=O)CCNCCc1ccccc1 [Example 1, bis-trifluoroacetic acid salt]

>  <qualitativeLabel>
medium value

$$$$
>  <molecule>
O=C(CCNCCc1ccccn1)N(CCNCCc1ccc(O)c2[nH]c(=O)sc12)C1CCCCC1 [Example 33, bis-trifluoroacetic acid salt]

>  <qualitativeLabel>
low value

$$$$
>  <molecule>
CCCC[C@@H](C)N(CCNCCc1ccc(O)c2[nH]c(=O)sc12)C(=O)CCNCCc1ccccc1 [Example 101, bis-trifluoroacetic acid salt]

>  <qualitativeLabel>
low value

$$$$
>  <molecule>
O=C(CCNCCc1ccc(Cl)cc1)N(CCNCCc1ccc(O)c2[nH]c(=O)sc12)C1CCCCCC1 [Example 51, bis-trifluoroacetic acid salt]

>  <qualitativeLabel>
high value

$$$$
>  <molecule>
Cc1cccc(CCNCCC(=O)N(CCNCCc2ccc(O)c3[nH]c(=O)sc23)C2CCOCC2)c1 [Example 25, bis-trifluoroacetic acid salt]

>  <qualitativeLabel>
medium value

$$$$
>  <molecule>
O=C(CCNCCc1ccc(F)cc1Cl)N(CCNCCc1ccc(O)c2[nH]c(=O)sc12)C1CCCCCC1 [Example 57, bis-trifluoroacetic acid salt]

>  <qualitativeLabel>
low value

$$$$
>  <molecule>
CC(C)(Cc1ccccc1)NCCC(=O)N(CCNCCc1ccc(O)c2[nH]c(=O)sc12)C1CCCCC1 [Example 19, bis-trifluoroacetic acid salt]

>  <qualitativeLabel>
high value

$$$$
>  <molecule>
O=C(CCNCCc1ccc(O)c(Cl)c1)N(CCNCCc1ccc(O)c2[nH]c(=O)sc12)C1CCCCC1 [Example 89, bis-trifluoroacetic acid salt]

>  <qualitativeLabel>
low value

$$$$
>  <molecule>
CC(C)(CO)CN(CCNCCc1ccc(O)c2[nH]c(=O)sc12)C(=O)CCNCCc1cccc(Cl)c1 [Example 66, bis-trifluoroacetic acid salt]

>  <qualitativeLabel>
medium value

$$$$
>  <molecule>
Cc1ccccc1CCNCCC(=O)N(CCNCCc1ccc(O)c2[nH]c(=O)sc12)C1CCOCC1 [Example 27, bis-trifluoroacetic acid salt]

>  <qualitativeLabel>
medium value

$$$$
>  <molecule>
O=C(CCNCCc1cccc(O)c1)N(CCNCCc1ccc(O)c2[nH]c(=O)sc12)C1CCCCCCC1 [Example 90, bis-trifluoroacetic acid salt]

>  <qualitativeLabel>
low value

$$$$
>  <molecule>
O=C(CCNCCc1ccc(Cl)cc1)N(CCNCCc1ccc(O)c2[nH]c(=O)sc12)C1CCCC1 [Example 28, bis-trifluoroacetic acid salt]

>  <qualitativeLabel>
high value

$$$$
>  <molecule>
CC(C)(C)CN(CCNCCc1ccc(O)c2[nH]c(=O)sc12)C(=O)CCNCCc1ccc(Cl)cc1 [Example 8, bis-trifluoroacetic acid salt]

>  <qualitativeLabel>
high value

$$$$
>  <molecule>
O=C(CCNCCc1cc(F)ccc1F)N(CCNCCc1ccc(O)c2[nH]c(=O)sc12)C1CCCCC1 [Example 79, bis-trifluoroacetic acid salt]

>  <qualitativeLabel>
low value

$$$$
>  <molecule>
NS(=O)(=O)c1ccc(CCNCCC(=O)N(CCNCCc2ccc(O)c3[nH]c(=O)sc23)C2CCCCC2)cc1 [Example 69, bis-trifluoroacetic acid salt]

>  <qualitativeLabel>
low value

$$$$
>  <molecule>
O=C(CCNCCc1ccc(Cl)c(Cl)c1)N(CCNCCc1ccc(O)c2[nH]c(=O)sc12)C1CCOCC1 [Example 24, bis-trifluoroacetic acid salt]

>  <qualitativeLabel>
high value

$$$$

----------
biological target: recombinant human α1D receptor (Homo sapiens, UniProt P25100); construct: expressed in transfected cells; host or cells: HEK293; assay: Adrenergic α1D selectivity binding assay ([3H]-prazosin); conditions: inhibition of [3H]-prazosin (0.3 nM) binding, HEK293 membranes; read-out: α1 bind pIC50 (converted)
Counter-ions that a name gives are not always drawn.
measurementKind: IC50 (nM)

>  <compound>
O=C(CCNCCc1ccc(Cl)cc1)N(CCNCCc1ccc(O)c2[nH]c(=O)sc12)C1CCCCC1 [Example 13, bis-trifluoroacetic acid salt]

>  <unitAbbrev>
nM

>  <measurement>
316

$$$$
>  <compound>
O=C(CCNCCc1ccc(F)cc1)N(CCNCCc1ccc(O)c2[nH]c(=O)sc12)C1CCCCC1 [Example 16, bis-trifluoroacetic acid salt]

>  <unitAbbrev>
nM

>  <measurement>
100

$$$$
>  <compound>
O=C(CCNCCc1cccc(Cl)c1)N(CCNCCc1ccc(O)c2[nH]c(=O)sc12)C1CCCCCC1 [Example 50, bis-trifluoroacetic acid salt]

>  <unitAbbrev>
nM

>  <measurement>
79.4

$$$$
>  <compound>
O=C(CCNCCc1ccccc1Cl)N(CCNCCc1ccc(O)c2[nH]c(=O)sc12)C1CCCC1 [Example 29, bis-trifluoroacetic acid salt]

>  <unitAbbrev>
nM

>  <measurement>
100

$$$$
>  <compound>
CC(CN(C(=O)CCNCCc1ccccc1)C1CCCCC1)NCCc1ccc(O)c2[nH]c(=O)sc12 (stereo not drawn) [Example 105, bis-trifluoroacetic acid salt]

>  <unitAbbrev>
nM

>  <measurement>
79.4

$$$$
>  <compound>
O=C(CCNCCc1ccccc1)N(CCNCCc1ccc(O)c2[nH]c(=O)sc12)C1CCCCCC1 [Example 98, dihydrobromide salt]

>  <unitAbbrev>
nM

>  <measurement>
63.1

$$$$
>  <compound>
O=C(CCNCCc1cccc(Cl)c1)N(CCNCCc1ccc(O)c2[nH]c(=O)sc12)C1CCC(F)(F)CC1 [Example 47, bis-trifluoroacetic acid salt]

>  <unitAbbrev>
nM

>  <measurement>
501

$$$$
>  <compound>
O=C(CCNC[C@H](O)c1ccccc1)N(CCNCCc1ccc(O)c2[nH]c(=O)sc12)C1CCCCC1 [Example 75, bis-trifluoroacetic acid salt]

>  <unitAbbrev>
nM

>  <measurement>
251

$$$$
>  <compound>
O=C(CCNCCc1cccc(F)c1)N(CCNCCc1ccc(O)c2[nH]c(=O)sc12)CC12CC3CC(CC(C3)C1)C2 [Example 60, bis-trifluoroacetic acid salt]

>  <unitAbbrev>
nM

>  <measurement>
316

$$$$
>  <compound>
O=C(CCNCCc1ccc(O)c2[nH]c(=O)sc12)N(CCNCCc1ccc(O)c2[nH]c(=O)sc12)C1CCCCCC1 [Example 87, bis-trifluoroacetic acid salt]

>  <unitAbbrev>
nM

>  <measurement>
251

$$$$
>  <compound>
Cc1cccc(CCNCCC(=O)N(CCNCCc2ccc(O)c3[nH]c(=O)sc23)CC(C)(C)C)c1 [Example 10, bis-trifluoroacetic acid salt]

>  <unitAbbrev>
nM

>  <measurement>
251

$$$$
>  <compound>
O=C(CCNCCc1ccccc1)N(CCNCCc1ccc(O)c2[nH]c(=O)sc12)CC12CC3CC(CC(C3)C1)C2 [Example 59, bis-trifluoroacetic acid salt]

>  <unitAbbrev>
nM

>  <measurement>
100

$$$$
>  <compound>
O=C(CCNCCc1ccc(F)c(F)c1)N(CCNCCc1ccc(O)c2[nH]c(=O)sc12)C1CCCCCC1 [Example 53, bis-trifluoroacetic acid salt]

>  <unitAbbrev>
nM

>  <measurement>
126

$$$$
>  <compound>
O=C(CCNCCc1ccc(Cl)cc1)N(CCNCCc1ccc(O)c2[nH]c(=O)sc12)C1CCC(F)(F)CC1 [Example 48, bis-trifluoroacetic acid salt]

>  <unitAbbrev>
nM

>  <measurement>
631

$$$$
>  <compound>
O=C(CCNCCc1cccc(Cl)c1)N(CCNCCc1ccc(O)c2[nH]c(=O)sc12)C1CCOCC1 [Example 22, bis-trifluoroacetic acid salt]

>  <unitAbbrev>
nM

>  <measurement>
251

$$$$
>  <compound>
O=C(CCNCCc1ccc2c(c1)OCO2)N(CCNCCc1ccc(O)c2[nH]c(=O)sc12)C1CCCCC1 [Example 76, bis-trifluoroacetic acid salt]

>  <unitAbbrev>
nM

>  <measurement>
158

$$$$
>  <compound>
O=C(CCNCCc1ccccc1)N(CCNCCc1ccc(O)c2[nH]c(=O)sc12)C1CCCCC1 [Example 5, bis-trifluoroacetic acid salt]

>  <unitAbbrev>
nM

>  <measurement>
100

$$$$
>  <compound>
O=C(CCNCCc1ccc(F)c(F)c1)N(CCNCCc1ccc(O)c2[nH]c(=O)sc12)C1CCCCC1 [Example 73, bis-trifluoroacetic acid salt]

>  <unitAbbrev>
nM

>  <measurement>
398

$$$$
>  <compound>
O=C(CCNCCc1cccc(F)c1F)N(CCNCCc1ccc(O)c2[nH]c(=O)sc12)C1CCCCCC1 [Example 56, bis-trifluoroacetic acid salt]

>  <unitAbbrev>
nM

>  <measurement>
251

$$$$
>  <compound>
O=C(CCNCCc1ccccc1)N(CCNCCc1ccc(O)c2[nH]c(=O)sc12)C1CCSCC1 [Example 62, bis-trifluoroacetic acid salt]

>  <unitAbbrev>
nM

>  <measurement>
63.1

$$$$
>  <compound>
CC(C)(CO)CN(CCNCCc1ccc(O)c2[nH]c(=O)sc12)C(=O)CCNCCc1ccc(Cl)cc1 [Example 40, diacetic acid salt]

>  <unitAbbrev>
nM

>  <measurement>
794

$$$$
>  <compound>
O=C(CCNCCc1ccccc1Cl)N(CCNCCc1ccc(O)c2[nH]c(=O)sc12)C1CCCCC1

>  <unitAbbrev>
nM

>  <measurement>
50.1

$$$$
>  <compound>
Cc1cccc(CCNCCC(=O)N(CCNCCc2ccc(O)c3[nH]c(=O)sc23)C2CCCCCC2)c1 [Example 85, bis-trifluoroacetic acid salt]

>  <unitAbbrev>
nM

>  <measurement>
50.1

$$$$
>  <compound>
O=C(CCNCCc1ccc(F)cc1)N(CCNCCc1ccc(O)c2[nH]c(=O)sc12)CC12CC3CC(CC(C3)C1)C2 [Example 61, bis-trifluoroacetic acid salt]

>  <unitAbbrev>
nM

>  <measurement>
316

$$$$

Entry source: patent US20100022491A1
